These entries and their values trace back to the RNAGym collection of RNA variant scans (doi:10.1073/pnas.2313332121).

B1: TPR t1 (parent)
chain: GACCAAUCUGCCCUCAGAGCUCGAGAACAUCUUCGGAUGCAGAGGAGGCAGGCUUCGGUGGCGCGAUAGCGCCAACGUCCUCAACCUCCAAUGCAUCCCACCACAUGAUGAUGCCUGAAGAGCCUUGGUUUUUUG

- Variants of: B1
- Experiment summary: polymerase ribozyme fitness, log enrichment relative to wild type (log ratio); higher = more active; in vitro selection for triplet polymerase activity
Label fulfilled when polymerase ribozyme fitness (log ratio) >= -2; otherwise not fulfilled.

>>> label_class("G48U C70A")
"not fulfilled"
>>> label_class("C62A C85G")
"not fulfilled"
>>> label_class("C12A C72U A100C U133G")
"fulfilled"
>>> label_class("C72U A91C G127A")
"not fulfilled"
>>> label_class("G42A G44U C73A")
"fulfilled"
>>> label_class("C13A C97U")
"not fulfilled"
>>> label_class("A91G G117U")
"not fulfilled"
>>> label_class("C8G G36A A121C U131G")
"fulfilled"
>>> label_class("U32C C76U A90U")
"not fulfilled"
>>> label_class("C73U A91G C104U U112A G113U")
"fulfilled"
>>> label_class("G36C G60A C98U")
"not fulfilled"
>>> label_class("G39A G44A U78C")
"fulfilled"
>>> label_class("G44U G117U")
"not fulfilled"
>>> label_class("C85U U112A")
"fulfilled"
>>> label_class("C49G C123U")
"fulfilled"
>>> label_class("C73G A83C C101G C115U U116A")
"not fulfilled"
>>> label_class("A29G G52U")
"fulfilled"
>>> label_class("C4U G39U G71U G117A U133A")
"not fulfilled"
>>> label_class("A5U C20G A121C C123U")
"not fulfilled"
>>> label_class("C49U C82G")
"fulfilled"
>>> label_class("C28A A119U")
"not fulfilled"
>>> label_class("G10U C56A U112A")
"fulfilled"
>>> label_class("C40U U96G C115G A118U G122U")
"not fulfilled"
>>> label_class("A2U C11A U33A A37U G61U G120A")
"not fulfilled"
>>> label_class("C53U C64U")
"fulfilled"
>>> label_class("C85G C88U")
"fulfilled"
>>> label_class("C11U U38G G57U G69C A74G G110A")
"not fulfilled"
>>> label_class("A2G C12U")
"fulfilled"
>>> label_class("C15U G17A G19A U38G G69C A75U U92G U109C C124U U134G")
"not fulfilled"
>>> label_class("C34U G47A")
"not fulfilled"
>>> label_class("C13G G36U G60A G110U")
"not fulfilled"
>>> label_class("C4G C79U C104U")
"fulfilled"
>>> label_class("G19C C53A G93A C123U")
"not fulfilled"
>>> label_class("C15A G39C G117A")
"fulfilled"
>>> label_class("C11U C13A C88U")
"not fulfilled"
>>> label_class("C15U G42U G120U G127C")
"not fulfilled"
>>> label_class("A111C G122U C123U U130C")
"fulfilled"
>>> label_class("C56A C101G")
"fulfilled"
>>> label_class("C62A G93U C101G")
"not fulfilled"
>>> label_class("G61A G110U U132A")
"fulfilled"
>>> label_class("C56U C99U")
"not fulfilled"
>>> label_class("G52A U55A A74U G120C C123A C124U G135A")
"fulfilled"
>>> label_class("G47C G117U")
"not fulfilled"
>>> label_class("G69U U116A")
"fulfilled"
>>> label_class("A83U C88A G128C")
"not fulfilled"
>>> label_class("U9A C72U C123G U134G")
"fulfilled"
>>> label_class("G25U C80A C88U A121C")
"not fulfilled"
>>> label_class("G77C G122A U130A")
"fulfilled"
>>> label_class("C56U C62A")
"not fulfilled"
>>> label_class("G19U G110C")
"not fulfilled"
>>> label_class("A26G A46C G52C")
"not fulfilled"
>>> label_class("C56U G69C C89U C123U")
"not fulfilled"
>>> label_class("U7A G60U C104A U125A")
"fulfilled"
>>> label_class("A5C A26U")
"not fulfilled"
>>> label_class("A2G G107U")
"not fulfilled"
>>> label_class("C3A G45A")
"not fulfilled"
>>> label_class("C12A G69C C85A G113U G127A U130C")
"not fulfilled"
>>> label_class("C20U A50U U78C")
"fulfilled"
>>> label_class("C8A A100C")
"fulfilled"
>>> label_class("G93A A118U U133A")
"fulfilled"
>>> label_class("A37G G60A C102U")
"not fulfilled"
>>> label_class("C22G G47C U59C U92G C97A A111G")
"not fulfilled"
>>> label_class("C4A C13A U54G C56A G77A")
"not fulfilled"
>>> label_class("A5C C62U")
"fulfilled"
>>> label_class("G45A C89U")
"fulfilled"
>>> label_class("U9G C31U")
"not fulfilled"
>>> label_class("C49U C76U U81A C88A")
"not fulfilled"
>>> label_class("C49G G69U")
"fulfilled"
>>> label_class("C13G G36A C40G")
"not fulfilled"
>>> label_class("U59A C70U C102A A105U A111G G128A U129A")
"not fulfilled"
>>> label_class("G71U U78C C98U A119U")
"fulfilled"
